- System: Candida albicans
- Protocol Details: Densitometric measurement of the propagation of yeast fungi (BIOSCREEN C), minimal inhibitory concentration
- Format: cell-based
- Settings: Candida albicans, 30 h, read-out: MIC values of the individual tests
Readout Type: MIC (µg/mL)
Your answer is read as µg/mL, so omit the unit and give the number.

Some compounds with known MIC results, for comparison:
>  <Compound>
CC(Cn1cncn1)(O[Si](C)(C)C)c1ccc(F)cc1F (stereo not drawn) [Example 6]

>  <Readout Type>
MIC

>  <Unit>
µg/mL

>  <Result Number>
150

$$$$
>  <Compound>
C[Si](C)(C)OC(Cn1cncn1)(Cn1cncn1)c1ccc(F)cc1F [Example 1]

>  <Readout Type>
MIC

>  <Unit>
µg/mL

>  <Result Number>
150

$$$$
>  <Compound>
C[Si](C)(C)OC(CCl)(Cn1cncn1)c1ccc(F)cc1F (stereo not drawn) [Example 5]

>  <Readout Type>
MIC

>  <Unit>
µg/mL

>  <Result Number>
9

$$$$
>  <Compound>
OC(Cn1cncn1)(Cn1cncn1)c1ccc(F)cc1F [fluconazole, reference compound]

>  <Readout Type>
MIC

>  <Unit>
µg/mL

>  <Result Number>
2500

$$$$
>  <Compound>
C[Si](C)(C)OC(Cn1ccnc1)(Cn1cncn1)c1ccc(F)cc1F (stereo not drawn) [Example 3]

>  <Readout Type>
MIC

>  <Unit>
µg/mL

>  <Result Number>
150

$$$$

Inquiry: // output MIC; input C[Si](C)(C)OC(CCl)(Cn1ccnc1)c1ccc(F)cc1F (stereo not drawn) [Example 8] ; system Candida albicans
Reply text: 19
